Tested on: DIV14
Assay: qHTS profiling for inhibitors of Plasmodium falciparum proliferation (AID 504749); note: nearly all actives have a fitted effect of over 60% in size
Conditions: P. falciparum in erythrocytes, SYBR Green DNA, 72 h; series mostly up to 28.7 µM
Results filed as inconclusive are left out. The source made the active and inactive calls. Calls come from the whole dose curve; as a rule, active = well fitted inhibition curve with a large enough effect; inconclusive = small, poorly fitted or top-dose-only effect; inactive = flat fitted curve, though single readings scatter.
Reply using exactly one outcome from active, inactive

State the result this test recorded for `CCCCCCCCCCCC[n+]1ccc2ccccc2c1` . active

Field entry: `C=CCSSSCC=C` inactive

Field entry: CO[C@H](C(=O)[C@@H](O)[C@@H](C)O)C1Cc2cc3cc(O[C@H]4C[C@@H](O[C@H]5C[C@@H](O)[C@H](O)[C@@H](C)O5)[C@@H](O)[C@@H](C)O4)c(C)c(O)c3c(O)c2C(=O)[C@H]1O[C@H]1C[C@@H](O[C@H]2C[C@@H](O[C@H]3C[C@](C)(O)[C@H](O)[C@@H](C)O3)[C@H](O)[C@@H](C)O2)[C@H](O)[C@@H](C)O1 (some centres undefined) active

Field entry: `CCOc1ccc2c(c1)C(C)=CC(C)(C)N2` inactive

Field entry: `CCOC(C)=O` inactive

Field entry: `C#CCOc1ccc2c(C)cc(=O)oc2c1` inactive

Field entry: `CCCCCCCCCCCCCCCC(=O)OCC(COC(=O)CCCCCCCCCCCCCCC)OC(=O)CCCCCCCCCCCCCCC` inactive

Field entry: `CC1(C)S[C@@H]2[C@H](NC(=O)[C@@H](NC(=O)N3CCNC3=O)c3ccccc3)C(=O)N2[C@H]1C(=O)O` inactive

Field entry: `O=S(=O)(O)c1ccc2c(N=Nc3ccc(S(=O)(=O)O)c4ccccc34)c(O)c(S(=O)(=O)O)cc2c1` inactive

====

Would you mind telling me the reported activity change, negative = thiol reactive of each entry?
Test: Primary fluorescence-based thiol-reactive (MSTI) qHTS assay for identification of artifact compounds. (AID 1845221); note: nearly all actives have a fitted effect of over 65% in size;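 for activity change, negative = thiol reactive: thiol-reactive compounds lower the probe fluorescence signal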
Details: MSTI thiol-reactivity probe, 1 h; series mostly up to 53.8 µM
Results filed as inconclusive are left out. Calls of active or inactive are those of the source. Calls come from the whole dose curve; as a rule, active = well fitted inhibition curve with a large enough effect; inconclusive = small, poorly fitted or top-dose-only effect; inactive = no such curve, though single readings can be large or run the other way.

Endpoint output: activity change, negative = thiol reactive of C/C=C(\C)C(=O)O[C@H]1[C@H](O)[C@]2(COC(C)=O)[C@H](O)C[C@]3(C)C(=CCC4[C@@]5(C)CC[C@H](O[C@@H]6O[C@H](C(=O)O)[C@@H](O[C@@H]7O[C@H](CO)[C@@H](O)[C@H](O)[C@H]7O)[C@H](O)[C@H]6O[C@@H]6O[C@H](CO)[C@@H](O)[C@H](O)[C@H]6O)[C@](C)(CO)C5CC[C@]43C)[C@@H]2CC1(C)C (stereo partly drawn) . Value? 113% [at 11.5 µM] (inactive)

Field entry: O=C(OCc1cccc(O)c1O[C@@H]1O[C@H](CO)[C@@H](O)[C@H](O)[C@H]1O)C1(O)C(=O)C2C=CC1C1C=CC(=O)C(O)(C(=O)OCc3cccc(O)c3O[C@@H]3O[C@H](CO)[C@@H](O)[C@H](O)[C@H]3O)C21 (stereo partly drawn) 11.6% [at 11.5 µM] (inactive)

Field entry: C/C=C(\C)C(=O)O[C@@H]1CC2[C@@H](CC=C3C[C@@H](O[C@H]4C[C@H](OC)[C@H](O[C@H]5C[C@H](OC)[C@H](O[C@H]6C[C@H](OC)[C@H](O[C@H]7C[C@@H](OC)[C@H](O[C@@H]8O[C@H](CO)[C@@H](O)[C@H](O)[C@H]8O)[C@@H](C)O7)[C@@H](C)O6)[C@@H](C)O5)[C@@H](C)O4)CC[C@@]32C)[C@@]2(O)CC[C@H](C(C)=O)[C@@]12C (stereo partly drawn) 10.3% [at 11.5 µM] (inactive)

====

Molecular target: Cytochrome P450 2D6 (Homo sapiens) (UniProt P10635)
Sequence (P10635 whole entry, looked up): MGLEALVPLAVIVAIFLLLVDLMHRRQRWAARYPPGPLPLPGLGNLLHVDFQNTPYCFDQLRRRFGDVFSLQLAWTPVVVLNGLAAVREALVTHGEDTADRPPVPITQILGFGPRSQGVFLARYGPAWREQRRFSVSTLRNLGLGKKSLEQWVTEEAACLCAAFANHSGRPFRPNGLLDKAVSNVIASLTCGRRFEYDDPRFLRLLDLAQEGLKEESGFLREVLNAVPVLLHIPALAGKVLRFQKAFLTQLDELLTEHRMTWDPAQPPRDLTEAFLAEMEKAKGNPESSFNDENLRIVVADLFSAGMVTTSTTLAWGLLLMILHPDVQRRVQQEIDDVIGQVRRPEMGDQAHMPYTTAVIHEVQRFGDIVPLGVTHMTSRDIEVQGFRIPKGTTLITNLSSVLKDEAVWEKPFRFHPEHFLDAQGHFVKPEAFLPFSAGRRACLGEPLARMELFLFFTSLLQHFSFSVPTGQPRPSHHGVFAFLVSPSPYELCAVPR
Test: Cytochrome P450 family 2 subfamily D member 6 (CYP2D6) small molecule antagonists: luciferase biochemical (cell-free) qHTS assay (AID 1645840); note: nearly all actives have a fitted effect of over 55% in size
Conditions: P450-Glo CYP2D6 enzyme, luciferin luminescence, 1 h; series mostly up to 57.4 µM
Results filed as inconclusive are left out. The source made the active and inactive calls. Calls come from the whole dose curve; as a rule, active = well fitted inhibition curve with a large enough effect in the repeat runs; inconclusive = weak or mixed curves; inactive = flat fitted curve, though single readings scatter.
Reply using exactly one outcome from yes (active), no (inactive)

State the result this test recorded for `CC[C@@H](c1ccc(F)c(F)c1)n1c(C(=O)OC)c(-c2ccno2)[nH]c1=S` . no

Field entry: CN1Cc2c(N)cccc2C(c2ccccc2)C1 (stereo not given) yes

Field entry: `O=C(Nc1cccnn1)N1CCC(=Cc2cccc(Oc3ccc(C(F)(F)F)cn3)c2)CC1` yes

Field entry: `CNc1nc(Nc2cnn([C@H]3CCN(C4COC4)C[C@@H]3F)c2Cl)ncc1C(F)(F)F` no

Field entry: `C=Cc1cc(O)cc2nc(-c3ccc(O)c(F)c3)oc12` yes

Field entry: COCCCNCC1COc2ccccc2O1 (stereo not given) yes

Field entry: `CCS(=O)(=O)N1CCC([C@@H](C)n2c(C)c(C(=O)NCc3c(OC)cc(C)[nH]c3=O)c3ccccc32)CC1` no

Field entry: NC(=O)c1ncn(C2OC(CO)C(O)C2O)n1 (stereo not given) no

Field entry: `CCOC(=O)Nc1nc2ccccc2[nH]1` yes

Field entry: `Cc1onc(-c2ccccc2)c1C(=O)N[C@@H]1C(=O)N2[C@@H]1SC(C)(C)[C@@H]2C(=O)O` no

====

Experiment: qHTS assay to identify small molecules that stimulate interleukin-8 (IL-8) secretion (AID 651758); note: potency is the fitted concentration of half-maximal effect; for activation: 0% is about no effect
Settings: HTRF ratio (665/615); series mostly up to 92.2 µM
Records with an inconclusive call do not appear. Calls of active or inactive are those of the source. The call rests on the fitted dose curve; in most records, active means well fitted activation curve with a large enough effect in the signal ratio; inconclusive means small, poorly fitted or top-dose-only effect, or effect the other way, or a change in a side signal; inactive means flat fitted curve, though single readings scatter; the % refers to the signal ratio.
reported.property: Potency

# compound, reported.property, endpoint.value
measured = [
    ("O=S(=O)(O)O", "Potency", "inactive"),
    ("O=C(O)CCC(=O)C(=O)O", "Potency", "inactive"),
    ("CC(O)CO (centres undefined)", "Potency", "inactive"),
    ("CC1=C(/C=C/C(C)=C/C=C/C(C)=C/CO)C(C)(C)CCC1", "Potency", "37.6 µM (active)"),
]

====

Test: Primary fluorescence-based thiol-reactive (MSTI) qHTS assay for identification of artifact compounds. (AID 1845221); note: nearly all actives have a fitted effect of over 65% in size
Details: MSTI thiol-reactivity probe, 1 h; series mostly up to 53.8 µM
Inconclusive results are not listed. Calls of active or inactive are those of the source. Calls follow the shape of the dose curve; as a rule, active = well fitted inhibition curve with a large enough effect; inconclusive = small, poorly fitted or top-dose-only effect; inactive = no such curve, though single readings can be large or run the other way.
Reply using exactly one outcome from active, inactive

State the result this test recorded for `C=C/C=C/[C@@H]1OC[C@H](/C=C/C=C/C)[C@H]1O` . inactive

Field entry: C=C1CCC2(OC1)OC1CC3C4CC=C5CC(O)CC(O[C@@H]6OC[C@@H](O)[C@H](O)[C@H]6O)C5(C)C4CCC3(C)C1(O)C2C (some centres not stated) inactive

Field entry: `CCc1cc2c(=O)c(-c3nc4ccccc4s3)coc2c(CN2CCCCC2)c1O` inactive

Field entry: `CN1C(=O)c2ccccc2-n2c(nc3ccccc3c2=O)/C1=C/c1ccccc1` inactive

Field entry: `COc1cc(C/C(=C/NC(C)=O)N(CC(=O)Cc2ccccc2)C(C)=O)cc2c1OCO2` inactive

Field entry: `CC(C)c1ccc(CC(=O)N2CCC[C@@H](c3cccc(OC(C)(C)C(=O)O)c3)C2)cc1` inactive

Field entry: `OC[C@H]1O[C@@H](Oc2ccc3c(c2)OC[C@H]2c4cc5c(cc4O[C@@H]32)OCO5)[C@H](O)[C@@H](O)[C@@H]1O` inactive

Field entry: C=CC1(C)C=C2C(O)CC3C(C)(C(=O)O)CCCC3(C)C2CC1 (configuration not stated) inactive

Field entry: CC(C)N(C[C@H]1O[C@@H](n2cnc3c(N)ncnc32)[C@H](O)[C@@H]1O)C1CC(CCc2nc3ccc(C(C)(C)C)cc3[nH]2)C1 (some centres not stated) inactive

Field entry: `C=C1CC[C@H]2[C@@H](/C=C(\C)C(=O)[C@@]3(OC(C)=O)C[C@H](C)[C@H](OC(C)=O)[C@@H]3[C@H]1OC(C)=O)C2(C)C` inactive

Field entry: `C#C[C@]1(O)CC[C@H]2[C@@H]3CCC4=C/C(=N/O)CC[C@@H]4[C@H]3CC[C@@]21CC` inactive

Field entry: `Cn1c(=O)c2nc(/C=C/c3cccc(Cl)c3)n(C)c2n(C)c1=O` inactive

Field entry: `O=C(O)CCc1cccc(O[C@@H]2O[C@H](CO)[C@@H](O)[C@H](O)[C@H]2O)c1O` active

Field entry: COC(=O)[C@]12C(=O)C(C)=C(O)[C@@]1(C)C(C)=CC1[C@@]34CC[C@@H](OC(C)=O)C(C)(C)C3[C@H](C[C@]12C)OC4=O (some centres not stated) inactive

Field entry: `COc1ccc(C[C@H](N)C(=O)N[C@H]2[C@@H](O)[C@H](n3cnc4c(N(C)C)ncnc43)O[C@@H]2CO)cc1` inactive

Field entry: CC1=CCC2C(C)(CO)CCCC2(C)C1CC12OC1C(O)C(CO)=CC2O (configuration not stated) inactive

Field entry: `C/C=C1\[C@H](O[C@@H]2O[C@H](CO)[C@@H](O)[C@H](O)[C@H]2O)OC=C(C(=O)OC)[C@H]1CC(=O)OC` inactive
